# protocolDescription: qHTS for Inhibitors of Vif-A3F Interactions: qHTS; also: nearly all actives have a fitted effect of over 65% in size
# conditionNotes: HeLa A3F-eYFP + Vif, YFP fluorescence increase; series mostly up to 46.1 µM
# Source text: The recent discovery and characterization of host restriction factors, which provide a potent defense to invading retroviruses, has provided new targets for antiviral drug development. […] In the presence of an inhibitor, it is expected that Vif will be unable to degrade A3G-eYFP and/or A3F-eYFP, resulting in an increase in yellow fluorescence. […]
Hit rate of the full screen: of about 390,000 compounds, about 760 (0.19%) were called active. Not shown: some 3% with an inconclusive outcome. Calls follow the shape of the dose curve; as a rule, active = well fitted inhibition curve with a large enough effect; inconclusive = small, poorly fitted or top-dose-only effect; inactive = flat fitted curve, though single readings scatter. This excerpt belongs to a sample that is enriched for actives.
Choose one outcome from this list and give only that: Yes = active, No = inactive

Below are worked cases with known answers.
smi | classification
COc1cc(Cn2c(N)c(C(=O)NCc3ccco3)c3nc4ccccc4nc32)cc(OC)c1OC | No
O=C(N/N=C/c1c(O)n(Cc2ccccc2)c(=O)[nH]c1=O)c1ccccc1 | No

Outcome? CC/C(=N\NC(=O)c1ccccc1O)c1c(O)n(Cc2ccccc2)c(=O)[nH]c1=O
Yes

###

# protocolDescription: qHTS for Inhibitors of Vif-A3F Interactions: qHTS; also: nearly all actives have a fitted effect of over 65% in size
# conditionNotes: HeLa A3F-eYFP + Vif (tagged APOBEC3F with the HIV-1 protein that degrades it), YFP fluorescence increase; series mostly up to 46.1 µM
The whole screen tested about 390,000 compounds, of which about 760 (0.19%) were called active. Not shown: some 3% with an inconclusive outcome. Calls follow the shape of the dose curve; as a rule, active = well fitted inhibition curve with a large enough effect; inconclusive = small, poorly fitted or top-dose-only effect; inactive = flat fitted curve, though single readings scatter. This excerpt belongs to a sample that is enriched for actives.
Write down the outcome that applies. Available outcomes: true (active), false (inactive)

molecule | classification
COC(=O)C1=C(c2cc3ccccc3o2)C[C@@H]2CC[C@H]1N2C(=O)NC1CCCCC1 | false

Call for entry O=c1c2ccccc2nc(/C=C/c2ccco2)n1-c1ccccc1O :
false

Kindly provide the recorded test outcome for the following molecule: COC(=O)C1=C(c2cc3ccccc3s2)C[C@@H]2CC[C@H]1N2C(=O)NCc1cccc2ccccc12
false

Recorded test call requested for CCC(C)(O)C(=O)OC1C(=O)OC2CC3C(C)=CC(=O)C(O)C3(C)C3C4(O)OCC23C1C(C)C4O (stereo not given)
false

State the result this test recorded for COC(=O)C1=C(c2ccc(Cl)c(C(F)(F)F)c2)C[C@@H]2CC[C@H]1N2C(=O)NC(C)C .
false

# fetch the recorded call for CC(=CCOc1ccc2ccc(=O)oc2c1)C1=CC(=O)C(C)(C)O1 here
false

Hi, sorry to bother you, what did the test record for CCCn1c(C(=O)c2ccccc2OC)nc2ccccc21 ?
false

Tell me the recorded outcome of this test for Cn1cc(/C=C/c2nc3ccccc3c(=O)n2-c2ccccc2)c2ccccc21 .
false

// return assay outcome for CC1=CC(=Cc2sc3ccccc3[n+]2C)C=C(C)O1
true

Hi, sorry to bother you, what did the test record for CNP1(NC)=Nc2nn(-c3ccccc3)c(N)c2C(c2ccccc2)=N1 ?
false
